Test system: MALME-3M melanoma
EXPERIMENT SUMMARY: NCI tumour cell line growth inhibition, 48 h
Would you kindly list TGI for each of these compounds?

I'm hoping you can list TGI for every compound here, please.
1. CCc1n[nH]c(=O)n1N=C(c1ccccc1)c1ccccc1
2. C=CCn1c(=O)c(C(=O)NC(=O)OCC)cn(C2CCCCC2)c1=O
3. CCN(CC)CC(O)c1cc(-c2ccc(Cl)cc2)nc2cc(Cl)ccc12 (centres undefined)
4. NC(CSC1(c2ccc(Cl)cc2)c2ccccc2-c2ccccc21)C(=O)O (centres undefined)

1. > 100 µM
2. > 100 µM
3. 3.62 µM
4. 38.5 µM

---

System: MCF7 breast
EXPERIMENT SUMMARY: NCI tumour cell line growth inhibition, 48 h
Would you kindly list TGI for each of these compounds?

{"columns": ["COMPOUND", "TGI"],
 "data": [
  ["CC1=C(C(=O)NCCCN(CCO)CCO)CC(C(=O)NCCCN(CCO)CCO)=C(C)N1", "> 100 µM"],
  ["Nc1nc(Cl)nc2c1ncn2C1OC(CO)C(O)C1O (stereo not given)", "> 100 µM"],
  ["CCOC(=O)c1cc([N+](=O)[O-])cc([N+](=O)[O-])c1Sc1ncnc2nc[nH]c12", "4.08 µM"]
]}

I'm hoping you can list TGI for every compound here, please.
1. COc1ccc2c(c1)C(=O)c1c-2c(OCCN2CCCCC2)nc2ccc(OC)cc12
2. O=c1[nH]c(-c2ccc(Cl)cc2)cc2ccsc12

1. 2.05 µM
2. > 100 µM

I'm hoping you can list TGI for every compound here, please.
1. Cc1csc2c(=O)n(COCc3ccccc3)c(=O)[nH]c12
2. Cc1ccc(Cc2n[nH]c(=O)n2N2C(=O)c3ccccc3C2=O)cc1

1: > 100 µM; 2: > 100 µM

I'm hoping you can list TGI for every compound here, please.
1. CN(C)C=Nc1c2c(nc3ccccc13)CCCC2
2. CC1(C)OC2OC(C(=O)c3ccccc3)C3OC(C)(C)OC3C2O1 (stereo not given)
3. C=C(C)[C@@H]1CC[C@]2(C(=O)N3CCN(C)CC3)CC[C@]3(C)[C@H](CC[C@@H]4[C@@]5(C)CC[C@H](O)C(C)(C)[C@@H]5CC[C@]43C)[C@@H]12
4. CSc1nc(SC)c2c(C)cn(C3OC(C)C(O)C(O)C3O)c2n1 (stereo not given)
5. O=[N+]([O-])c1ccc2c(N=Nc3ccc4ccccc4c3O)c(O)cc(S(=O)(=O)O)c2c1

1: > 100 µM; 2: > 100 µM; 3: 4.22 µM; 4: > 100 µM; 5: > 100 µM

---

Tested on: XF 498 CNS
EXPERIMENT SUMMARY: NCI tumour cell line growth inhibition, 48 h
MEASURED QUANTITY: TGI

{"columns": ["COMPOUND", "EXPERIMENTAL VALUE"],
 "data": [
  ["c1ccc(N2N=NC3C4CC(C5c6ccccc6C45)C32)cc1 (stereo not drawn)", "38.5 µM"],
  ["N/C(=N/N=C/c1cccc(F)c1)NO", "> 100 µM"],
  ["COc1ccc(NC(=O)C2=CC(=O)c3ccc(O)cc3C2=O)c(OC)c1", "> 100 µM"]
]}

I'm hoping you can list TGI for every compound here, please.
1. Cn1c2c(c3ccccc31)CCN(CCCN1CCN(c3ccccc3)CC1)C2=O
2. COc1cccc2c1C(=O)c1c(O)c3c(c(O)c1C2=O)CC(O)(C(C)=O)CC3O (stereo not drawn)
3. COc1cc(CC2C(=O)OCC2[C@@H](OC(C)=O)c2ccc3c(c2)OCO3)c(Br)c(OC)c1OC (stereo partly drawn)
4. C/C(CC(=O)Nc1ccc([N+](=O)[O-])cc1)=N\Nc1ccc([N+](=O)[O-])cc1[N+](=O)[O-]
5. COC(=O)C1=Cc2cn(S(=O)(=O)c3ccc(C)cc3)c3cccc(c23)C(C=C(C)C)N1C(C)=O (stereo not drawn)

1. 27.8 µM
2. 1.31 µM
3. > 100 µM
4. > 100 µM
5. > 100 µM
